Test system: HEK293T-Rex XBP1-RLuc
Experiment: EC50 for XBP1-RLuc reporter activation
Settings: 18 h
RECORDED_METRIC: EC50 for XBP1-RLuc reporter activation

Provide measured EC50 for XBP1-RLuc reporter activation on HEK293T-Rex XBP1-RLuc for Cc1ccc(NC(=S)NC(=O)C(=O)Nc2ccccc2)cc1 please.
> 16.9 µM

Provide measured EC50 for XBP1-RLuc reporter activation on HEK293T-Rex XBP1-RLuc for COc1ccc(/C=N/NC(=O)c2cccc(F)c2)cc1Br please.
> 16.9 µM

Provide measured EC50 for XBP1-RLuc reporter activation on HEK293T-Rex XBP1-RLuc for N#Cc1c(NC(=O)c2ccc3ncsc3c2)sc2c1CCC2 please.
> 16.6 µM

Provide measured EC50 for XBP1-RLuc reporter activation on HEK293T-Rex XBP1-RLuc for NC(=O)c1c(NC(=O)c2cccc3ccccc23)sc2c1CCC2 please.
> 16.9 µM

Provide measured EC50 for XBP1-RLuc reporter activation on HEK293T-Rex XBP1-RLuc for O=c1[nH]c(/C=C2\C=Nc3ccccc32)c(O)n1-c1ccc(Cl)cc1 please.
4.87 µM

Provide measured EC50 for XBP1-RLuc reporter activation on HEK293T-Rex XBP1-RLuc for Cc1cc(C)nc(/N=C(\N)Nc2ccc(OCCC(C)C)cc2)n1 please.
> 5.17 µM

Provide measured EC50 for XBP1-RLuc reporter activation on HEK293T-Rex XBP1-RLuc for CCOc1cc(C2C(C(=O)OC3CCCCC3)=C(C)NC3=C2C(=O)CC(c2ccc(OC)cc2)C3)cc(Br)c1O (stereo not drawn) please.
5.3 µM

Provide measured EC50 for XBP1-RLuc reporter activation on HEK293T-Rex XBP1-RLuc for CCCCNc1ncnc2c1cnn2-c1ccc(Cl)cc1 please.
> 19.5 µM

Provide measured EC50 for XBP1-RLuc reporter activation on HEK293T-Rex XBP1-RLuc for Cc1nc(-c2ccc(C(=O)Nc3ccc(O)cc3)cc2)cs1 please.
12.9 µM

Provide measured EC50 for XBP1-RLuc reporter activation on HEK293T-Rex XBP1-RLuc for Oc1cccc(Nc2nc(-c3ccc(O)c(O)c3)cs2)c1 please.
16.5 µM

Provide measured EC50 for XBP1-RLuc reporter activation on HEK293T-Rex XBP1-RLuc for CC(C)CNC(=O)c1cc(-c2ccc(F)cc2)no1 please.
> 16.9 µM

Reference source for all entries: the supplement of paper PMC4954754
